- System: HepG2
- Method notes: Antiproliferative activity against human HepG2 cells assessed as inhibition of cell growth incubated for 24 to 72 hrs by CCK8 assay
- Assay type: functional, cell-based
Reported property: pIC50
Schema: pIC50 number; meaning minus log10 of the concentration expressed in molar units.

Solved entries:
CCCCCCCCCCCC(=O)O[C@@]12C[C@@H](C)[C@]34C=C(C)[C@H](OC(=O)NCc5ccc(F)cc5)[C@@]3(O)[C@H](O)C(CO)=C[C@H](C4=O)[C@@H]1C2(C)C	4.96
CCCCCCCCCCCC(=O)O[C@@]12C[C@@H](C)[C@]34C=C(C)[C@H](O)[C@@]3(O)[C@H](O)C(COC(=O)c3ccc(F)cc3)=C[C@H](C4=O)[C@@H]1C2(C)C	5.12
CCCCCCCCCCCC(=O)O[C@@]12C[C@@H](C)[C@]34C=C(C)[C@H](OC(=O)c5ccc(OC)cc5)[C@@]3(O)[C@H](O)C(CO)=C[C@H](C4=O)[C@@H]1C2(C)C	4.84
CCCCCCCCCCCC(=O)O[C@@]12C[C@@H](C)[C@]34C=C(C)[C@H](OC)[C@@]3(O)[C@H](O)C(CO)=C[C@H](C4=O)[C@@H]1C2(C)C	4.87

Now take the following molecule into account.
Data request: For the molecule shown here, "CCCCCCCCCCCC(=O)O[C@@]12C[C@@H](C)[C@]34C=C(C)[C@H](OCc5ccccc5)[C@@]3(O)[C@H](O)C(CO)=C[C@H](C4=O)[C@@H]1C2(C)C" , give the reported pIC50.
Data returned: 5.06

* * *

- Test system: HepG2
- Method notes: Antiproliferative activity against human HepG2 cells assessed as inhibition of cell growth incubated for 24 to 72 hrs by CCK8 assay
- Type: functional, cell-based
Doc: threshold 20 µM (exclusive). Items with IC50 beneath it return label 1; others return label 0.

Worked examples follow.
C/C=C(/C)C(=O)O[C@H]1C(C)=C[C@]23C(=O)[C@@H](C=C(CO)[C@@H](O)[C@]12O)[C@H]1[C@@H](C[C@H]3C)C1(C)C [INGENOL MEBUTATE]	label 0
CCCCCCCCCCCC(=O)O[C@@]12C[C@@H](C)[C@]34C=C(C)[C@H](OC(=O)c5ccc(Br)cc5)[C@@]3(O)[C@H](O)C(CO)=C[C@H](C4=O)[C@@H]1C2(C)C	label 0

Data request: Quick check: does "CCCCCCCCCCCC(=O)O[C@@]12C[C@@H](C)[C@]34C=C(C)[C@H](OC(=O)NC(C)C)[C@@]3(O)[C@H](O)C(CO)=C[C@H](C4=O)[C@@H]1C2(C)C" have IC50 under 20 µM?
Data returned: label 1

Data request: What do you get for "CCCCCCCCCCCC(=O)O[C@@]12C[C@@H](C)[C@]34C=C(C)[C@H](OC(=O)c5ccc([N+](=O)[O-])cc5)[C@@]3(O)[C@H](O)C(COC(=O)c3ccc([N+](=O)[O-])cc3)=C[C@H](C4=O)[C@@H]1C2(C)C" ?
Data returned: label 0

Data request: What do you get for "CCCCCCCCCCCC(=O)O[C@@]12C[C@@H](C)[C@]34C=C(C)[C@H](OC(=O)NCc5ccc(C)cc5)[C@@]3(O)[C@H](O)C(CO)=C[C@H](C4=O)[C@@H]1C2(C)C" ?
Data returned: label 0

Data request: What do you get for "CCCCCCCCCCCC(=O)O[C@@]12C[C@@H](C)[C@]34C=C(C)[C@H](O)[C@@]3(O)[C@H](O)C(COC(=O)c3ccc([N+](=O)[O-])cc3)=C[C@H](C4=O)[C@@H]1C2(C)C" ?
Data returned: label 1

Data request: What do you get for "CCCCCCCCCCCC(=O)O[C@@]12C[C@@H](C)[C@]34C=C(C)[C@H](OCC)[C@@]3(O)[C@H](O)C(CO)=C[C@H](C4=O)[C@@H]1C2(C)C" ?
Data returned: label 1

Data request: What do you get for "CCCCCCCCCCCC(=O)O[C@@]12C[C@@H](C)[C@]34C=C(C)[C@H](OC(=O)c5ccccc5)[C@@]3(O)[C@H](O)C(CO)=C[C@H](C4=O)[C@@H]1C2(C)C" ?
Data returned: label 1
